# Tested on: Escherichia coli
# test-method-notes: Antibacterial activity against penicillin-susceptible Escherichia coli ATCC 25922 incubated for 24 hrs by tube-dilution method
# Type: functional
# condition-parameters: ATCC 25922, 24 h
Reported MIC is given for each of the following compounds.

For orientation, consider the following solved cases.
> print(dat)
                           given.smiles     system.tested  observed.measurement
1     Cc1ccc2c(c1)c1ccccc1c[n+]2C.[Cl-]  Escherichia coli            > 128 mg/L
2  CCCCc1ccc2c(c1)c1ccccc1c[n+]2C.[Cl-]  Escherichia coli            > 128 mg/L

[ask] Record C[n+]1cc2ccccc2c2ccccc21.[Cl-] : what is its MIC with Escherichia coli?
[reply] > 128 mg/L

[ask] Item C[n+]1cc2ccccc2c2cc(C(C)(C)C)ccc21.[Cl-] with Escherichia coli - MIC?
[reply] > 128 mg/L

[ask] Form field: MIC recorded for C[n+]1cc2ccccc2c2cc(F)ccc21.[Cl-] with Escherichia coli (enter value)
[reply] > 128 mg/L

[ask] Could you share what MIC was measured for COc1cc(OC)c2c(c1)c1ccccc1c[n+]2C.[Cl-] , tested on Escherichia coli?
[reply] > 128 mg/L

[ask] Lab note: need MIC with Escherichia coli for entry CC(C)c1cccc2c3ccccc3c[n+](C)c12.[Cl-] , please look it up.
[reply] > 128 mg/L

[ask] Field: MIC (Escherichia coli). Entry: C[n+]1cc2ccccc2c2cc(Cl)ccc21.[Cl-]
[reply] 128 mg/L

[ask] What value of MIC on Escherichia coli does C[n+]1cc2ccccc2c2cccc(OC(F)(F)F)c21.[Cl-] have?
[reply] > 128 mg/L

[ask] Fill in the recorded MIC for this compound, with Escherichia coli as test system: C[n+]1cc2ccccc2c2cc(OC(F)(F)F)ccc21.[Cl-]
[reply] > 128 mg/L

[ask] Return MIC measured with Escherichia coli given this compound: CSc1ccc2c(c1)c1ccccc1c[n+]2C.[Cl-]
[reply] > 128 mg/L

[ask] Entry CSc1cccc2c3ccccc3c[n+](C)c12.[Cl-] , system Escherichia coli: what MIC was measured?
[reply] > 128 mg/L

[ask] What value of MIC on Escherichia coli does C[n+]1cc2c3c(ccc2c2ccc4cc5c(cc4c21)OCO5)OCO3 have?
[reply] > 128 mg/L

[ask] MIC of COc1ccc2c(c1)c1ccccc1c[n+]2C.[Cl-] on Escherichia coli?
[reply] > 128 mg/L

[ask] Lab note: need MIC with Escherichia coli for entry Cc1cccc2c3ccccc3c[n+](C)c12.[Cl-] , please look it up.
[reply] > 128 mg/L

[ask] # query: MIC | item C[n+]1cc2ccccc2c2cc(C(F)(F)F)ccc21.[Cl-] | system: Escherichia coli
[reply] > 128 mg/L

[ask] Provide the documented MIC with Escherichia coli as the system for Cc1onc(-c2ccccc2)c1C(=O)N[C@@H]1C(=O)N2[C@@H]1SC(C)(C)[C@@H]2C(=O)[O-].[Na+]
[reply] 128 mg/L

[ask] Query MIC on Escherichia coli for Cc1cc(C)c2c(c1)c1ccccc1c[n+]2C.[Cl-]
[reply] > 128 mg/L

[ask] What measured MIC is associated with COc1cccc2c3ccccc3c[n+](C)c12.[Cl-] on Escherichia coli?
[reply] > 128 mg/L
